Every entry's value here was drawn from the supplement of paper PMC10567573.

B1: RSPH3 (parent)
chain: KAASLARNLAKRRRTYLGGAAGRS

- Variants of: B1
- experiment: protein stability index of a GFP-peptide fusion (GPS, HEK-293T) (PSI 1-6); higher = more stable;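 further: lentivirally expressed fusions sorted by FACS into six bins by GFP to DsRed ratio, PSI derived from sequencing read proportions per bin multiplied by bin number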
- recorded conditions: c terminus: a fixed tail appended
result type: protein stability index
Please reply with the number alone, leaving off any unit.

query: What measured protein stability index goes with "L17K" ?
result: 4.17

query: Consider the variant "R23F" and give its measured protein stability index.
result: 1.63

query: Sample "G18L" — what was its protein stability index?
result: 2.32

query: Give its protein stability index value. Item: "A10T"
result: 3.17

query: Using the record for "T15V" , report its protein stability index.
result: 1.91

query: Fill in the blank: the reported protein stability index of "A21V" is ____.
result: 2.25

query: Recorded protein stability index of "G18F" , please.
result: 1.78

query: Any idea what protein stability index was measured for "K1F" ?
result: 1.47

query: protein stability index lookup needed for "L17H" , thanks.
result: 3.26

query: // protein stability index lookup, key: "L5I"
result: 2.58

query: Endpoint output: protein stability index of "A21K" . Value?
result: 3.2

query: Recorded protein stability index for "S24I" , please?
result: 3.4

query: Which protein stability index value belongs to "A6S" ?
result: 3.07

query: Query: protein stability index; subject: "R12Q"
result: 2.24

query: Query: protein stability index; subject: "A10V"
result: 2.43

query: Give the measured protein stability index of "K1T" .
result: 2.98

query: Dear colleague, I am looking for the recorded protein stability index of the following variant: "A6K"
result: 2.4

query: Query (variant): "G18H" ; field requested: protein stability index
result: 3.07

query: Look at this variant and give its reported protein stability index. "L5V"
result: 4.21

query: Given the entry "L9K" , report its measured protein stability index.
result: 4.94

query: Returns the measured protein stability index for the input variant. Input: "S24K"
result: 2

query: # query: protein stability index of entry "R23P"
result: 2.83
